Target: Kras and SOS1 (biotin-tagged human Kras loaded with GDP, His-tagged human SOS1) (Homo sapiens, UniProt P01116, G12D)
Construct: made in house; host or cells: E. coli (stated for Kras only)
Sequence (P01116 1-188 isoform P01116-2 G12D): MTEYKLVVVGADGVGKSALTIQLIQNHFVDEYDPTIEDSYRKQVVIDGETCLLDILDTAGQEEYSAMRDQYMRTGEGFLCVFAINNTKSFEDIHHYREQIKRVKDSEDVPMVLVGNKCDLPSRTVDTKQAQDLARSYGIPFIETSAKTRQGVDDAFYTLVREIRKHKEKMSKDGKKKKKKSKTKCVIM
Experiment: Protein-protein interaction inhibition between Kras and SOS1 (KrasGl2D-SOS PPI) using AlphaScreen
Type: binding
Conditions: AlphaScreen; biotin-tagged human Kras loaded with GDP, His-tagged human SOS1; read-out: KRAS G12D-SOS PPI IC50
Positions of bridges follow the written chain, without caps; N, C: chain ends. Non-standard residues stand in square brackets, D forms with d. Residues, ends and D or L forms follow the SMILES beside them. *: point of attachment. hPhe(3-Cl-4-CF3) = N[C@@H](CCc1ccc(C(F)(F)F)c(Cl)c1)C(=O)O; NMePhe(4-Cl) = CN[C@@H](Cc1ccc(Cl)cc1)C(=O)O; NMeGly(cPent) = CN[C@H](C(=O)O)C1CCCC1; NMeCha = CN[C@@H](CC1CCCCC1)C(=O)O; NMeF = CN[C@@H](Cc1ccccc1)C(=O)O; NMeD = CN[C@@H](CC(=O)O)C(=O)O; NMeL = CN[C@@H](CC(C)C)C(=O)O; NMeA = CN[C@@H](C)C(=O)O; Pyrrolidide = C1CCN(*)C1; Aze = O=C(O)[C@@H]1CCN1; Sar = CNCC(=O)O
Each entry below carries its recorded pIC50.
pIC50 here is simply -log10 of the concentration when that concentration is written in mol/L.

CC[C@H](C)[C@@H]1NC(=O)[C@H](C)N(C)C(=O)C[C@@H](C(=O)N2CCCC2)NC(=O)[C@H](CC(C)C)N(C)C(=O)[C@H](Cc2ccccc2)N(C)C(=O)[C@H](CC(C)C)NC(=O)[C@H](Cc2ccccc2)NC(=O)CN(C)C(=O)[C@H](Cc2ccc(Cl)cc2)N(C)C(=O)CN(C)C(=O)CN(C)C1=O [Compound 613] ([NMeA]I[Sar][Sar][NMePhe(4-Cl)][Sar]FL[NMeF][NMeL]D-Pyrrolidide; lactam N-11)
6.30

Would you kindly look at the next entry?
The compound listed as CC[C@H](C)[C@@H]1NC(=O)[C@H](CC(C)C)N(C)C(=O)C[C@@H](C(=O)N(C)C)N(C)C(=O)[C@H](C2CCCC2)N(C)C(=O)[C@H](C)NC(=O)[C@H](C)N(C)C(=O)[C@H](CCc2ccc(C(F)(F)F)c(Cl)c2)NC(=O)CN(C)C(=O)[C@H](CC2CCCCC2)N(C)C(=O)[C@@H]2CCN2C(=O)[C@H](C)N(C)C1=O [Compound 993] ([NMeL]I[NMeA][Aze][NMeCha][Sar][hPhe(3-Cl-4-CF3)][NMeA]A[NMeGly(cPent)][NMeD]-NMe2; lactam N-11) shows pIC50 equal to 7.80
